Measured values drawn from patent EP0943606A1 for this set.

# ASSAY_SYSTEM: leukotriene D4 (Cavia porcellus)
# Construct: tracheas were isolated from male Hartley guinea-pigs, and spiral specimens of approximately 2 cm length were prepared; from tissue; host or cells: isolated guinea-pig trachea (spiral strips)
# Sequence (Q2NNR5 1-340): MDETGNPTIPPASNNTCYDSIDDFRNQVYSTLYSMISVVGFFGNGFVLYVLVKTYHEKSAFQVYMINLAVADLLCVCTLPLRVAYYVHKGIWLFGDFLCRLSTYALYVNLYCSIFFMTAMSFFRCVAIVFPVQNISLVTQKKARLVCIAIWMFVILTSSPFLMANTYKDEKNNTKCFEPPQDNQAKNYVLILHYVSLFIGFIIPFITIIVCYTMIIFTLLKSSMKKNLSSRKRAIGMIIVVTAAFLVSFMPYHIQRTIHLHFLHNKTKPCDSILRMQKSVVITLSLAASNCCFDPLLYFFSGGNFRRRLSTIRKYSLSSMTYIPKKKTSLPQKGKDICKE
# ASSAY_METHOD_TEXT: Leukotriene D4 antagonistic effect (isolated trachea, leukotriene D4 concentration-response curves, Schild)
# Parameters: species or system male Hartley guinea-pigs
# CONDITION_INFO: isolated guinea-pig trachea, contraction by leukotriene D4, test compound treatment 30 minutes, indomethacin 1 × 10^-6M, method of Schild
QUANTITY_NAME: Kb

1. O=C(O)CCCc1ccc(C(CCCC(F)(F)C(F)(F)F)NS(=O)(=O)c2ccc(F)cc2)cc1 (stereo not shown) : 251 nM
2. O=C(O)CCCc1ccc(C(CCCC(F)(C(F)(F)F)C(F)(F)F)NS(=O)(=O)c2ccc(F)cc2)s1 (stereo not shown) : 398 nM
3. O=C(O)CCCc1ccc(C(CCCCCC(F)(F)F)NS(=O)(=O)c2ccc(F)cc2)s1 (stereo not shown) : 251 nM
4. O=C(O)CCCc1ccc(C(CCCC(F)(F)C(F)(F)C(F)(F)F)NS(=O)(=O)c2ccc(F)cc2)cc1 (stereo not shown) : 794 nM
5. CCCCCC(NS(=O)(=O)c1ccc(Cl)cc1)c1ccc(CCCC(=O)O)cc1 (stereo not shown) [Reference compound 1, reference compound] : 200 nM
6. O=C(O)CCCc1ccc(C(CCCC(F)(F)C(F)(F)F)NS(=O)(=O)c2ccc(F)cc2)s1 (stereo not shown) : 398 nM
7. CC(C)CCCC(NS(=O)(=O)c1ccc(Cl)cc1)c1ccc(CCCC(=O)O)cc1 (stereo not shown) [Reference compound 2, reference compound] : 251 nM
8. O=C(O)CCCc1ccc(C(CCCC(F)(F)C(F)(F)C(F)(F)F)NS(=O)(=O)c2ccc(Cl)cc2)s1 (stereo not shown) : 398 nM
9. O=C(O)CCCc1ccc(C(CCCC(F)(F)C(F)(F)F)NS(=O)(=O)c2ccc(Cl)cc2)s1 (stereo not shown) : 251 nM
10. O=C(O)CCCc1ccc(C(CCC(F)(F)C(F)(F)C(F)(F)F)NS(=O)(=O)c2ccc(F)cc2)s1 (stereo not shown) : 126 nM

* * *

# ASSAY_SYSTEM: thromboxane A2 / prostaglandin H2 receptor (Cavia porcellus)
# Construct: tracheas were isolated from male Hartley guinea-pigs, and spiral specimens of approximately 2 cm length were prepared; from tissue; host or cells: isolated guinea-pig trachea (spiral strips)
# Sequence (A0A286Y4I8 1-347): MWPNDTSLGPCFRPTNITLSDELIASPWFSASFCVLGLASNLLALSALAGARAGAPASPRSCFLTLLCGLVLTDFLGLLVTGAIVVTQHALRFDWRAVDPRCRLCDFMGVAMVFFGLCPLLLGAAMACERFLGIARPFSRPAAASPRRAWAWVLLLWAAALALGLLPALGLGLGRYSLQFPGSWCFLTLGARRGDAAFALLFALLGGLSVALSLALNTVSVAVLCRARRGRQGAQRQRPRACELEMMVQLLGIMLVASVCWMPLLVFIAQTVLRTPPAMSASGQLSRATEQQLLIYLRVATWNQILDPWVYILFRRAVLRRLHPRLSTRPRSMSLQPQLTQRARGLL
# ASSAY_METHOD_TEXT: Thromboxane A2 antagonistic effect (isolated trachea, U-46619 concentration-response curves, Schild)
# Design: species or system male Hartley guinea-pigs
# CONDITION_INFO: isolated guinea-pig trachea, contraction by U-46619, test compound treatment 5 minutes, indomethacin 3 × 10^-6M, method of Schild
# Protocol: According to an ordinary method, tracheas were isolated from male Hartley guinea-pigs, and spiral specimens of approximately 2 cm length were prepared. These specimens were suspended in organ baths that contained Krebs-Henseleit solution at 37°C under a resting tension of 1.5 g, and the changes in isometric tension were recorded. […]
# if measured Kb < 3 nM: fulfilled  # else: not fulfilled

1) O=C(O)CCCc1ccc(C(CCCC(F)(F)C(F)(F)F)NS(=O)(=O)c2ccc(F)cc2)cc1 (centres unmarked) [Example 189] : fulfilled
2) O=C(O)CCCc1ccc(C(CCCC(F)(F)C(F)(F)F)NS(=O)(=O)c2ccc(Cl)cc2)s1 (centres unmarked) [Example 162] : fulfilled
3) O=C(O)CCCc1ccc(C(CCC(F)(F)C(F)(F)C(F)(F)F)NS(=O)(=O)c2ccc(F)cc2)cc1 (centres unmarked) [Example 200] : not fulfilled
4) O=C(O)CCCc1ccc(C(CCCCCC(F)(F)F)NS(=O)(=O)c2ccc(F)cc2)s1 (centres unmarked) [Example 172] : fulfilled
5) O=C(O)CCCc1ccc(C(CCCC(F)(F)C(F)(F)C(F)(F)F)NS(=O)(=O)c2ccc(Cl)cc2)s1 (centres unmarked) [Example 177] : not fulfilled
6) O=C(O)CCCc1ccc(C(CCCC(F)(F)C(F)(F)C(F)(F)F)NS(=O)(=O)c2ccc(F)cc2)cc1 (centres unmarked) [Example 202] : not fulfilled
7) O=C(O)CCCc1ccc(C(CCCC(F)(F)C(F)(F)C(F)(F)F)NS(=O)(=O)c2ccc(F)cc2)s1 (centres unmarked) [Example 178] : not fulfilled
8) CC(C)CCCC(NS(=O)(=O)c1ccc(Cl)cc1)c1ccc(CCCC(=O)O)cc1 (centres unmarked) [Reference compound 2, reference compound] : fulfilled
9) O=C(O)CCCc1ccc(C(CCC(F)(F)C(F)(F)C(F)(F)F)NS(=O)(=O)c2ccc(F)cc2)s1 (centres unmarked) [Example 176] : not fulfilled
10) O=C(O)CCCc1ccc(C(CCCC(F)(F)C(F)(F)F)NS(=O)(=O)c2ccc(F)cc2)s1 (centres unmarked) [Example 163] : fulfilled
11) CCCCCC(NS(=O)(=O)c1ccc(Cl)cc1)c1ccc(CCCC(=O)O)cc1 (centres unmarked) [Reference compound 1, reference compound] : fulfilled
12) O=C(O)CCCc1ccc(C(CCC(F)(F)C(F)(F)C(F)(F)C(F)(F)F)NS(=O)(=O)c2ccc(F)cc2)s1 (centres unmarked) [Example 179] : not fulfilled
13) O=C(O)CCCc1ccc(C(CCCC(F)(C(F)(F)F)C(F)(F)F)NS(=O)(=O)c2ccc(F)cc2)s1 (centres unmarked) [Example 183] : fulfilled
14) O=C(O)CCCc1ccc(C(CCCC(F)(F)C(F)(F)F)NS(=O)(=O)c2ccc(Cl)cc2)cc1 (centres unmarked) [Example 188] : fulfilled
